ASSAYED_TARGET: MBP-TtProDH EE (apo-EE, reconstituted apo-EE) (Thermus thermophilus, UniProt Q72IB8, F10E/L12E, form not given)
Construct: gene TT_C1214; N-terminal MBP fusion kept; variant EE (F10E/L12E); E. coli BSV11 riboflavin auxotroph, apo form
Sequence (Q72IB8 whole entry F10E/L12E, form open, the tested form may be a part): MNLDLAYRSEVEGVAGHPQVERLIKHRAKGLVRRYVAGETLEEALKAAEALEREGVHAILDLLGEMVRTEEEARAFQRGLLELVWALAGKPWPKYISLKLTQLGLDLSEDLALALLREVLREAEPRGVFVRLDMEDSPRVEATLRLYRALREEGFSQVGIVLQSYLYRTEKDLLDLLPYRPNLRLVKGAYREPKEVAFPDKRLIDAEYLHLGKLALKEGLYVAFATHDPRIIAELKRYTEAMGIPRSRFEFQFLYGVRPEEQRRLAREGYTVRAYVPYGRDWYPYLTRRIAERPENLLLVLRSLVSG
EXPERIMENTAL_PROTOCOL: flavin fluorescence quenching titration
Type: binding
RECORDED_CONDITIONS: apoenzyme titrated into 200 nM FAD; 50 mM sodium phosphate, pH 7.4
EXPERIMENTAL_ENDPOINT: Kd (nM)
Report the figure in nM without appending any unit label.

Query string: I'd like to know its Kd. The compound in question is Cc1cc2nc3c(=O)[nH]c(=O)nc-3n(C[C@H](O)[C@H](O)[C@H](O)COP(=O)(O)OP(=O)(O)OC[C@H]3O[C@@H](n4cnc5c(N)ncnc54)[C@H](O)[C@@H]3O)c2cc1C
Result string: 18

###

ASSAYED_TARGET: MBP-TtProDH EE (apo-EE, reconstituted apo-EE) (Thermus thermophilus, UniProt Q72IB8, F10E/L12E, form not given)
Construct: gene TT_C1214; N-terminal MBP fusion kept; variant EE (F10E/L12E); E. coli BSV11 riboflavin auxotroph, apo form
EXPERIMENTAL_PROTOCOL: flavin fluorescence quenching titration
Assay type: binding
RECORDED_CONDITIONS: apoenzyme titrated into 200 nM FMN; 50 mM sodium phosphate, pH 7.4
EXPERIMENTAL_ENDPOINT: Kd

Query string: I would be grateful if you could share the reported Kd for Cc1cc2nc3c(=O)[nH]c(=O)nc-3n(C[C@H](O)[C@H](O)[C@H](O)COP(=O)(O)O)c2cc1C [FMN] .
Result string: 19.5 nM
